- method-description: yeast display, Sf9 membrane polyspecificity reagent, FACS + sequencing; frameworks hold sequencing errors

>  <construct-sequence>
QVQLVESGGGLVQAGGSLRLSCAASGSTFGHYAMGWYRQAPGKERELVAGITYTDNHELRRLCEGRFTISRDNAKNTVYLQMNSLKPEDTAVYYCNADDTYYPLGGITGYDYWGQGTQVTVSS

>  <polyreactivity (PSR sort gate)>
low polyreactivity

$$$$
>  <construct-sequence>
QVQLVESGGGLVQAGGSLRLSCAASGFTFYTYAMGWYRQAPGKERELVATISGSGGDTNYADSVKGRFTISRDNEKNTVYLQMDSLKPEDTAVYYCAAEPDATTYSDPYDYWGQGTQVTVSS

>  <polyreactivity (PSR sort gate)>
low polyreactivity

$$$$

----------
- method-description: yeast display, Sf9 membrane polyspecificity reagent, FACS + sequencing; frameworks hold sequencing errors
measured-metric: polyreactivity (PSR sort gate)

>  <construct-sequence>
QVQLVESGGGLVQAGGSLRLSCADSGNIFYKNTMGWYRQAPGKERELVAAISVSGGGTYYADSVKGRFTISRDNAKNTVYLQMNSLKPEDTAVYYCAATWRQHPGSMGYWGLGTQVTVSS

>  <experimental-result>
high polyreactivity

$$$$
>  <construct-sequence>
QVQLVESGGGLVQAGGSLRLSCAASGFTFFAYPMGWYRQAPGKERELVAGISRSGGRTYYADSVKGRFTISRDNAKNTVYLQMNSLKPEDTAVYYCNAVVRRSYLLEYDFCGQGTQVTVSS

>  <experimental-result>
high polyreactivity

$$$$

----------
- method-description: yeast display, Sf9 membrane polyspecificity reagent, FACS + sequencing; frameworks hold sequencing errors
measured-metric: polyreactivity (PSR sort gate)

>  <construct-sequence>
QVQLVESGGGLVQAGGSLRLSCAASGGIFNSYTMGWYRQAPGKERELVAAITKRGGSTYYADSVKGRFTISRYNAKNTVYLQMNSLKPEDTAVYYCAAGATVQFDYWGQGTQVTVSS

>  <measured-metric>
polyreactivity (PSR sort gate)

>  <experimental-result>
high polyreactivity

$$$$
>  <construct-sequence>
QVQHVESGGGLVQAGGSLRLSCADSGSTFWFNAMGWYRQAHGKERELVAAIDWSDGSTYYADSVKGRFTISRDNAKNTVYLQMNSLKPEDTAVYYCAADHRYSARRSVPTLYDYWGQGTHVTVSS

>  <measured-metric>
polyreactivity (PSR sort gate)

>  <experimental-result>
low polyreactivity

$$$$
>  <construct-sequence>
QVQIVESGGGLVQAGGSLRISCAPSGLIFAYYAMGRYRQAPGKERELVAAISSVGSTYYADSVKGRFTISRDNAKNTVYLQMNSLKPEDTAVYYCAAALYPYYWPEYNYWGQGTQVNVSS

>  <measured-metric>
polyreactivity (PSR sort gate)

>  <experimental-result>
high polyreactivity

$$$$
>  <construct-sequence>
QVQLVESGGGLVQAGGSLRLSCAASGSIFNLYTMGWYRQAPGKEMELVAVITGGGSTYYADSVKGRFTISRDNAKNTVYLQMNSLKPADTAVYYCAAKGPFYKSSRTGDYWGQGTQVTVSS

>  <measured-metric>
polyreactivity (PSR sort gate)

>  <experimental-result>
low polyreactivity

$$$$
>  <construct-sequence>
QVQLVESGGGLVQAGGSLRLSCAASGRTFFYNTMGWYRQAPGKERELVAAISYRGGRTYYADSVKGRFTISRDNAKNTVYLQMNSLKPEDTAVYYCNAYSYGHYYWGQGTQVTVSS

>  <measured-metric>
polyreactivity (PSR sort gate)

>  <experimental-result>
high polyreactivity

$$$$

Need polyreactivity (PSR sort gate), item QVQLVESGGGLVQAGGSLRLSCAASGITFIYYAMGWYRQAPGKEREFVAAITFRDGDTYYADSVKGRFTISRDNAKNTVYLQMNSLKPEDTAVYYCADTYWVYYYYPGYDYWGQGTQVTVSS
low polyreactivity

Need polyreactivity (PSR sort gate), item QVQIVESGGGLVQAGGSLRLSCAAYGRTFSYYTMGWYRQAPGKERELVARISNRGTNTYYADSEKGRFTISRDNAKNTVYLQMNSLKPEDPAVYYCAKYYSTSIVGYDSWGQGTQVTVSS
low polyreactivity

Need polyreactivity (PSR sort gate), item QVQLVESGGGLVQAGGSLRLSCAASGRIFGDNAMGWYRQAPGKERELVATISRGGTTNYADSVKGRFTISRDNAKNTVYLQMNSLKPEDTAVYYCNARSGGHGYSRYQTYLRYDYWGQGTQVTVSS
low polyreactivity

Need polyreactivity (PSR sort gate), item QVQLVESGGGLVQAGGSLRLSCAASGSIFGGYTMGWYRQAPGKERELVAAISRRGGNTYYADSVKGRFTISRDNAKNTVYLQMNSMKPEDSAVYYCAVRWPSARIPVKLDYWGQGTQVNVSS
high polyreactivity

Need polyreactivity (PSR sort gate), item QVQLVESGGGLVQAGGSLRLSCAASGRTFWSNAMGWSRQAPGKERELVAAITWSGGSTSYADSVKGRFTISRDNAKNTVYLQMNSLKTEDTAVYYCAAGKGVELAKLDYWGQGTQVTVSS
low polyreactivity

Need polyreactivity (PSR sort gate), item QVQLVESGGGLVQAGGSLRLSCAASGRIFSRYAMGWYRQAPGKERELVAAISRSGGSTYYADSVKGRFTISRDNAKNTVYLQMNSLKPEDTAVYYCAARNVFSYPPGSYYYWGQGTQVTVSS
high polyreactivity

Need polyreactivity (PSR sort gate), item QVQLVESGGGLVQAGGSLRLSCAASGIIFDGYAMGWYRQAPGKEREFVAAITSGGGSTSYADSVKGRFTISRDNAKNTVYLQMNSLKPEDTAVYYCAARSNRFYVRQRYAYWGQGTQLTVSS
high polyreactivity

----------
- method-description: yeast display, Sf9 membrane polyspecificity reagent, FACS + sequencing; frameworks hold sequencing errors
measured-metric: polyreactivity (PSR sort gate)

>  <construct-sequence>
QVQLVESGGGLVQAGGSLRLSCAASGSIFRFYAMGWYRQAPGKERELVAAISSGGSTYYADSVKGRFTISRDNAKNTVYLQMKSLKPEDTAVYYCAHGFAQYGLDLDPGDYDYWGQGTQVTVSS

>  <measured-metric>
polyreactivity (PSR sort gate)

>  <experimental-result>
low polyreactivity

$$$$
>  <construct-sequence>
QVQLVESGGGLVQAGGSLRLSCAASGRIFRPYAMGWYRQAPGKEREFVATIRFTTGRTYYADSVKGRFTISRDNAKNTVYLQMNSLKPEDTAVSYFAADFAFVNYAKISYTTHDYWGQGTQVTVSS

>  <measured-metric>
polyreactivity (PSR sort gate)

>  <experimental-result>
high polyreactivity

$$$$
>  <construct-sequence>
QVQLVESGGGLVQAGGSLRLSCAASGRIFPHNAMGWYRQAPGKERELVAAIRFSGGNTYYADSVKGRFTISRDNAKNTVYLQLNSLKPEDTAVYYCFVYGYVPYNYWGQGTQVTVSS

>  <measured-metric>
polyreactivity (PSR sort gate)

>  <experimental-result>
low polyreactivity

$$$$
>  <construct-sequence>
QVQLVESGGGLVQAGGSLRLSCAASGRTFHRNAMGWYRQAPGKERELVAAITGDGRTNYADSVKGRFTITRDNAKNTVSLQMNSLKPEDTAVYYCFSYDYDYWGQGTQVTVSS

>  <measured-metric>
polyreactivity (PSR sort gate)

>  <experimental-result>
low polyreactivity

$$$$

Pending sequence:
Need polyreactivity (PSR sort gate), item QVQLVESGGGLVQAGGSLRLSCAASGIIFHKYAMGWYRQAPGKERELVAVITWRGGSTYYADSVKGRFTISRDHAKNTVYLQMNSLKPEDTAVYYCAARSQYRDRTGQYGYWGQGTQVTVSS
high polyreactivity

----------
- method-description: yeast display, Sf9 membrane polyspecificity reagent, FACS + sequencing; frameworks hold sequencing errors
measured-metric: polyreactivity (PSR sort gate)

Worked cases, answers included:
>  <construct-sequence>
QVQLVESGGGLVQAGGSLRLSCAASGSTFPYNAMGWYRQAPGKERELVAAITSSGRTNYADSVKGRFTITLDNAKNTVYLQMNSLKPEDTAVYYCAAGRWYAHRVDYWGQGSQVTVSS

>  <measured-metric>
polyreactivity (PSR sort gate)

>  <experimental-result>
low polyreactivity

$$$$
>  <construct-sequence>
QVQLVESGGGLVQAGGSLRLSCAASGSTFTQYVMGWYRQAPGKERELVAAISDSGSTYYADSVKGRFTISRDNAKNTVYLQMNSLKPEDTAVYYCNADDVDFYYGYGYLEYDYWGQGTQVTVSS

>  <measured-metric>
polyreactivity (PSR sort gate)

>  <experimental-result>
low polyreactivity

$$$$
>  <construct-sequence>
QVQLVESGGGLVQAGGSLRLSCAASGNTFSWYAMGWYRQAPWKERELVAVITSGGSTNYADSVKGRFTISRDNAKNTVYLQMNSLKTEDTAVYYFAADSYGGSKYDYWGQGTQVTVSS

>  <measured-metric>
polyreactivity (PSR sort gate)

>  <experimental-result>
low polyreactivity

$$$$
>  <construct-sequence>
QLQLVESGGGLVQAGGSLRLSCAASGRTFQPYAMGWYRQAPGKERELVAAITSIGGSTFYADSVKGRFTISRDNAKNTVYLQMNSLKPEDTAVYYCAADPYTLYWYYWYGTSGFDYWGQGTQVTVSS

>  <measured-metric>
polyreactivity (PSR sort gate)

>  <experimental-result>
low polyreactivity

$$$$
>  <construct-sequence>
QVQLVESGGGLVQAGGSLRLSCAASGSTFYAKAMGWYRQAPGKERELVATINRRGNTYYADSVKGRFTISRDNAKNTVYLQMNSLKPEDTAVYYCAADYRRYGSYDYWGQGTQVTVSS

>  <measured-metric>
polyreactivity (PSR sort gate)

>  <experimental-result>
low polyreactivity

$$$$

Need polyreactivity (PSR sort gate), item QVQLVDSGGGLVQAGGSLRISCAASGLIFSKNVMGWYRQAPGKEREFVAAISQRGGSTYYADSVKGRFTISRDIAKNTVYLQMNSLKPEDTAVYYCAADNTVSHEDYWGQGTQVTVSS
high polyreactivity

Need polyreactivity (PSR sort gate), item QVQLVESGGGLVQAGGSLRLSCAASGSTFVDNDMGWYRQAPGKERELVAAAITARGGSTYYADSVKGRFTISRDNAKNTVYLQMNSLKPEDTAVYYCAAGRPGELDYWGQGTQVTVSS
low polyreactivity

Need polyreactivity (PSR sort gate), item QVQLVESGGGLVQAGGRLRLSCAASGYIFSYYAMAWYRQAPGKERELVASITSSGGSTYYADSVKGRFTISRDNAKNTVYLQMNSLKPEVTAVSYCAAYSLYGYDYWGQGTQVTVSS
low polyreactivity

Need polyreactivity (PSR sort gate), item QVQLVESGGGLVQAGGSLRLSCAASGSTLDTNAMGWYRQAPGKERELVAVIDSGGTTNYADSVKGRFTISRDNAKNTVYLQMNSLKPEDTAVYYCAADYAYFGYWFEGYDYWGQGTQVTVSS
low polyreactivity

Need polyreactivity (PSR sort gate), item QVQLVESGGGLVQAGGSLRLSCAASGRTSRRNAMGWYRQAPGKERELVAAISGSGGRTNSADSVKGRFTISRDNAQNTVYLQMNSLKPEDTAVYYCNVLTRYYLGYDYWGQGTQVTVSS
high polyreactivity

Need polyreactivity (PSR sort gate), item QVQLVESGGGKVQAGGSLRLSCAASGRIFYLNAMGWYRQAPGKEREFVAAITRNGGNTYYADSVKGRFTISRDNAKNTVYLQMNSLKPEDTAVYYCNAKYWPFSRWYYYWGQGTQVTVSS
high polyreactivity
